Origin of measurements: ChEMBL document CHEMBL1201862

# System: SF-295
# experiment: NCI tumour cell line growth inhibition, 48 h
Active and inactive are the calls of the source. No stated cut-off is given here; in the data, active = GI50 up to about 1.1 µM and inactive = higher.
Outcomes: active, inactive

C=C(C=O)c1c2c(nc3ccccc13)C(=O)c1ccccc1C2=O = inactive
C=CCCCCn1c2ccccc2c2c(C)c3c[n+](C)ccc3c(C)c21 = active
COc1ccc2oc(=O)c(CC=C(C)C)c(O)c2c1C = inactive
Cc1cc(C)nc(/C(=N\NC(N)=O)C(=O)Nc2nc3ccc(C)cc3s2)c1 = inactive
CCC(CS(=O)(=O)O)[N+](=O)[O-] (configuration not stated) = inactive
N#C/C(=C\c1cc(O)cc(O)c1)C(N)=O = inactive
COc1cc2c(c(OC)c1OC)C(=O)c1c(O)cc(C)c(OC)c1C2=O = inactive
CCOC(=O)c1cc(Br)c(-c2cc(C)no2)[nH]1 = inactive
c1ccc(C(=NNc2nc3ccccc3o2)c2ccccn2)nc1 = active
Oc1ccc2c3c1OC1c4[nH]c5c(c4CC4(O)C(C2)N(CC2CC2)CC[C@]314)CC1(O)C2Cc3ccc(O)c4c3[C@@]1(CCN2CC1CC1)C5O4 (some centres not stated) = inactive
CCC1CN2CCc3cc(OC)c(OC)cc3C2CC1CC1c2cc(OC)c(OC)cc2CCN1C(=O)C1CCCN1 (configuration not stated) = inactive
COCCOc1cc(C)cc(/C=C(C)/C=C/C2=C(C)CCCC2(C)C)n1 = inactive
CC1SC2=NC3=C(c4ccccc4C3=O)C(c3ccc(Cl)cc3)N2C1=O (configuration not stated) = inactive
COc1cc2c(c(O)c1OC)CC1CCC(=O)N1C2c1cccc2ccccc12 (configuration not stated) = inactive
CN1C(=O)CCC1c1ccc2c(c1)oc(=O)n2C (configuration not stated) = inactive
COc1ccc2c(c1)/C(=C\c1c(Cl)nc3sc(C)cn13)C(=O)N2 = inactive
COc1cc(N(CCC#N)CCC#N)ccc1/C=C1\SC(=S)NC1=O = inactive
CO/C=C(\Br)c1ccc2c(c1)OCO2 = inactive
COc1ccc(C2Oc3c(cccc3-c3c(-c4ccc(O)cc4)oc4cc(O)cc(O)c4c3=O)C(=O)C2O)cc1O (configuration not stated) = inactive
CCOC(=O)CO/N=C\C1=CC(=O)C2CC1C2(C)C (configuration not stated) = inactive
FC(F)(F)c1nc(-c2ccccc2)oc1Sc1nnc(Sc2oc(-c3ccccc3)nc2C(F)(F)F)s1 = inactive
CCN(CC)CCCN(c1cc(OC)cc2nccnc12)S(=O)(=O)c1ccc(C)cc1 = inactive
